- ASSAY_TARGET: PDGFRb (Homo sapiens)
- Construct: The kinase domain of PDGFRβ was assayed in 50 mM Hepes; purchased Invitrogen P3082
- Sequence (P09619 600-962 limits assumed): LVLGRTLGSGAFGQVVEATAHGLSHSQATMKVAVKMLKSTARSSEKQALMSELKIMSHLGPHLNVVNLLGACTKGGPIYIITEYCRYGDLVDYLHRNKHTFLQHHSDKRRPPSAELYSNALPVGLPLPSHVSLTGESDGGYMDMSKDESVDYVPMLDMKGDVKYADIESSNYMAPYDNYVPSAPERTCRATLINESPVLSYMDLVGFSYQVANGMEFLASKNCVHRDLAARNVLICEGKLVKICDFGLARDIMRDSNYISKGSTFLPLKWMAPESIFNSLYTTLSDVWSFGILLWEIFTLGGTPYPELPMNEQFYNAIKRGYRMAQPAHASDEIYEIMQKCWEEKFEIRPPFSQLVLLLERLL
- EXPERIMENT: PDGFRb kinase in vitro biochemical assay (alphascreen)
- SETTINGS: tested at about 1 μM; read-out: PDGF RK BETA percent inhibition
Binary call on inhibition at 1 µM: MET from 10% upward, NOT MET beneath that.

Past entries and their recorded results:
[
  {
    "MOLECULE": "O[C@@H]1CCCC[C@H]1Nc1nc2ccc(Oc3cncc(-c4ccccn4)c3)cc2s1 [Compound 67]",
    "CLASSIFICATION": "MET"
  },
  {
    "MOLECULE": "C[C@H](Nc1nc2ccc(Oc3ccc(NO)nc3)cc2s1)C1CCCCC1 [Compound 101]",
    "CLASSIFICATION": "MET"
  },
  {
    "MOLECULE": "Nc1ccc(-c2cncc(Oc3ccc4nc(N[C@@H]5CCCC[C@H]5O)sc4c3)c2)cn1 [Compound 47]",
    "CLASSIFICATION": "NOT MET"
  }
]

Could you please find out whether CNC(=O)c1ccc(Oc2ccc3nc(NCC4CCCCC4)sc3c2)cn1 [Compound 48] has inhibition at 1 µM that meets 10% or exceeds it?
NOT MET

Form field: inhibition at 1 µM at least 10%? Entry: O[C@@H]1CCCC[C@H]1Nc1nc2ccc(Oc3cc(Cl)ncn3)cc2s1 [Compound 5]
NOT MET

Could you please find out whether C[C@H](Nc1nc2ccc(Oc3ccnc(-c4cnn(C)c4)n3)cc2s1)C1CCCCC1 [Compound 30] has inhibition at 1 µM that meets 10% or exceeds it?
MET

I'd appreciate it if you could say whether CN1CCN(c2ccc(-c3cncc(Oc4ccc5nc(N[C@@H]6CCCC[C@H]6O)sc5c4)n3)cn2)CC1 [Compound 98] has inhibition at 1 µM at least equal to 10%.
MET

Kindly determine if inhibition at 1 µM recorded for CNC(=O)c1cncc(Oc2ccc3nc(NCC4CCCCC4)sc3c2)n1 [Compound 50] is above or exactly 10%.
MET

For this molecule, is measured inhibition at 1 µM 10% or higher? O[C@@H]1CCCC[C@H]1Nc1nc2ccc(Oc3cnccc3Cl)cc2s1 [Compound 7]
MET

Value source: patent US8293769B2
